assay_text: Half life in C57BL/6 mouse at 3 mg/kg, iv administered as single dose
Type: ADME, organism-based
test_context: in vivo
property_name: half-life (h)

>  <smiles_input>
CC(C)(O)c1coc(S(=O)(=O)NC(=O)Nc2c3c(cc4c2CCC4)CCC3)c1

>  <numeric_result>
3

$$$$

----------
test_system: NACHT, LRR and PYD domains-containing protein 3 (Mus musculus, UniProt Q8R4B8)
Sequence (Q8R4B8 whole entry, the tested form may be a part): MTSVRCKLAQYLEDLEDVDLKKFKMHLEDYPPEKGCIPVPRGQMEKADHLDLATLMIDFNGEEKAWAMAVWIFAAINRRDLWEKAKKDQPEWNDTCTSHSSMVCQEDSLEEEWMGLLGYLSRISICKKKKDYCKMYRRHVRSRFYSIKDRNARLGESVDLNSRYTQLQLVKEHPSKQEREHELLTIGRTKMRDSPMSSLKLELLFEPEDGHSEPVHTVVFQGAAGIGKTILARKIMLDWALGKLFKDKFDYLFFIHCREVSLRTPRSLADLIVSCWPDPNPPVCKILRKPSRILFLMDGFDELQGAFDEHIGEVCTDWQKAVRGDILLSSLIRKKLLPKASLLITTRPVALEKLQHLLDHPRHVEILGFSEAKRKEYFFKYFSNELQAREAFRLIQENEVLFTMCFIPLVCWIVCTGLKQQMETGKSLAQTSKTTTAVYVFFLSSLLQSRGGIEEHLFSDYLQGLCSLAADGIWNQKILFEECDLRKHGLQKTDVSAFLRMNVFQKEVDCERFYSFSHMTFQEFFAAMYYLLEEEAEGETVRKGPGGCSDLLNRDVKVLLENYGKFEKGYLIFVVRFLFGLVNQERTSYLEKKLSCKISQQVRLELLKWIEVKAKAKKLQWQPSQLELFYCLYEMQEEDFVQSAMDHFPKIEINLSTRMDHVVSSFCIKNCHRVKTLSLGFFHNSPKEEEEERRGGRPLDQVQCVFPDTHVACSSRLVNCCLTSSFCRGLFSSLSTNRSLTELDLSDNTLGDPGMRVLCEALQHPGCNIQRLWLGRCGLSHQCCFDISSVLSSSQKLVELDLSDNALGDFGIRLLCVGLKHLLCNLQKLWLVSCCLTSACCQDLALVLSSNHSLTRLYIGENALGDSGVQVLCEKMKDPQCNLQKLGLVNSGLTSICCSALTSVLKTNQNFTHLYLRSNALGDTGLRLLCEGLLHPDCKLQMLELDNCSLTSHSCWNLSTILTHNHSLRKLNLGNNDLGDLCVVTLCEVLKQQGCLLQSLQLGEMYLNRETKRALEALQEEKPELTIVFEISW
assay_text: Inhibition of NLRP3 in LPS stimulated mouse BMDM cells after 15 mins followed by addition of ATP by ELISA analysis
pIC50: −log10 of the molar value.

>  <smiles_input>
O=[N+]([O-])/C=C/c1ccc2c(c1)OCO2

>  <pIC50>
5.70

$$$$

----------
test_system: Pannexin-1 (Homo sapiens, UniProt Q96RD7)
Sequence (Q96RD7 whole entry): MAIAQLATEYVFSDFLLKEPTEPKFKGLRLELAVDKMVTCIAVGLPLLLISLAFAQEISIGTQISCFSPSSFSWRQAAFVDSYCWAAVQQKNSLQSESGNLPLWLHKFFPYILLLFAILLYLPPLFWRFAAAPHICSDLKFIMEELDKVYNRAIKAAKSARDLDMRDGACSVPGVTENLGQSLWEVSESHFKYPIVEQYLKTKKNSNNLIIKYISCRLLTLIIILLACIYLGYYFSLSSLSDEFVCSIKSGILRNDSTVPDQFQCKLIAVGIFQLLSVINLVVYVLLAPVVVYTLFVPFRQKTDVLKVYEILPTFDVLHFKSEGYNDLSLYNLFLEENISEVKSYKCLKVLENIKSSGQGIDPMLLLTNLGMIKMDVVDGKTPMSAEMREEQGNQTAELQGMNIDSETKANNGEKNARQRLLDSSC
assay_text: Binding affinity to pannexin 1 channel (unknown origin)
pIC50: −log10 of the molar value.

>  <molecule>
CCCN(CCC)S(=O)(=O)c1ccc(C(=O)O)cc1 [PROBENECID]

>  <pIC50>
3.82

$$$$

----------
assay_text: Oral bioavailability in single dosed C57BL/6 mouse at 20 mg/kg
Type: ADME, organism-based
test_context: in vivo

>  <smiles_input>
CC(C)(O)c1coc(S(=O)(=O)NC(=O)Nc2c3c(cc4c2CCC4)CCC3)c1

>  <bioavailability>
68%

$$$$
